target: Nicotinamide N-methyltransferase (Homo sapiens); test: Confirmatory Screen for Target Class Profiling of Small Molecule Inhibitors of Methyltransferases (AID 1745852); conditions: MTase-Glo luminescence, SAH detection, recombinant enzyme; measured here: NNMT max response; stronger effect = lower value
In this section we review reported activity values for a set of compounds.
Please give the number followed by its unit.

Here's what some known entries look like.
COMPOUND: CCN1CCN(Cc2ccc(Nc3ncc(F)c(-c4cc(F)c5nc(C)n(C(C)C)c5c4)n3)nc2)CC1
READOUT: activity
REPORTED_RESULT: -61.4%
//
COMPOUND: COc1cc2ncnc(Nc3ccc(F)c(Cl)c3)c2cc1NC(=O)/C=C/CN1CCCCC1
READOUT: activity
REPORTED_RESULT: -36.6%
//
COMPOUND: CNC(=O)c1ccccc1Nc1nc(Nc2ccc(N3CCNCC3)cc2)ncc1Cl
READOUT: activity
REPORTED_RESULT: -58.7%
//
COMPOUND: O=C(c1ccccc1)c1ccc2nc(NC(=O)c3csc(C4CCN(c5ncnc6ccsc56)CC4)n3)[nH]c2c1
READOUT: activity
REPORTED_RESULT: -42%
//
COMPOUND: CCCNc1ccc2ncc(-c3ccc4[nH]ncc4c3)n2n1
READOUT: activity
REPORTED_RESULT: -46%

Continue with the next compound.
Task item: Item N#Cc1ccc2[nH]cc(CCCCN3CCN(c4ccc5oc(C(N)=O)cc5c4)CC3)c2c1 with Nicotinamide N-methyltransferase (Homo sapiens) - activity?
Reply: -49.2%

###

biological target: Luciferin 4-monooxygenase (Photinus pyralis) (UniProt P08659); assay: Primary firefly luciferase (FLuc) qHTS assay for identification of artifact compounds. (AID 1845220); details: purified firefly luciferase, luminescence, 5 min; series mostly up to 54.1 µM;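 further: plate controls were DMSO vehicle for no effect and no enzyme for full effect; nearly all actives have a fitted effect of over 60% in size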
Calls of active or inactive are those of the source. The call rests on the fitted dose curve; in most records, active means well fitted inhibition curve with a large enough effect; inconclusive means small, poorly fitted or top-dose-only effect; inactive means flat fitted curve, though single readings scatter. *1 amine or outer side, *2 acyl side, *3 side chain or, on linkers, in order; H or OH if unused. Where a SMILES comes first, the peptide text is derived from it. [ ]: non-standard residue; d: D form. X4 = CC(C)=CCc1cc(C(O)C(N[*:1])C(=O)[*:2])ccc1O
READOUT: activity change, negative = inhibition

MOLECULE: CC1(C(=O)O)CCCC2(C)C3CCC4CC3(CCC12)CC4=O (stereo not given)
READOUT: activity change, negative = inhibition
REPORTED_RESULT: inactive

MOLECULE: CC(C)(C)OC(=O)N1CCC(OCc2nc(-c3ccncc3)no2)CC1
READOUT: activity change, negative = inhibition
REPORTED_RESULT: inactive

MOLECULE: C/C(=C\CCC(C)CCO)C(=O)OC1(C)CCC2C(C(=O)O)=COC(OC3OC(CO)C(O)C(O)C3O)C21 (stereo not given)
READOUT: activity change, negative = inhibition
REPORTED_RESULT: inactive

MOLECULE: C=C(C(=O)OC)C1C(O)CC2(C)C(O)CCC(=O)C2C1O (stereo not given)
READOUT: activity change, negative = inhibition
REPORTED_RESULT: inactive

MOLECULE: CO[C@H]1O[C@@H]2O[C@]3(C)CC[C@H]4[C@H](C)CC[C@@H]([C@H]1C)[C@@]24OO3
READOUT: activity change, negative = inhibition
REPORTED_RESULT: inactive

MOLECULE: C=CC(C)(C)C12C=C(OC)C(=O)N3C(C(C)C)C(=O)NC31N(OC)c1ccccc12 (stereo not given)
READOUT: activity change, negative = inhibition
REPORTED_RESULT: inactive

MOLECULE: Clc1cc2c(NC3CCCC3)nnc(-c3ccncc3)c2cc1Cl
READOUT: activity change, negative = inhibition
REPORTED_RESULT: inactive

MOLECULE: COc1cccc2cc3c(c(O[C@@H]4O[C@H](CO[C@@H]5O[C@H](CO)[C@@H](O)[C@H](O)[C@H]5O)[C@@H](O)[C@H](O)[C@H]4O)c12)C(C)OC3=O (stereo not given in full)
READOUT: activity change, negative = inhibition
REPORTED_RESULT: inactive

MOLECULE: C#CC[C@H](c1nc2cc(Cl)ccc2c(=O)n1Nc1ccccc1)N(CCCN)C(=O)c1cccc(Cl)c1F
READOUT: activity change, negative = inhibition
REPORTED_RESULT: inactive

MOLECULE: CC1OC(O[C@H]2CC[C@@]3(C)C(CC[C@]4(C)C3CC=C3C5CC(C)(C)CC[C@]5(C(=O)OC5OC(CO)C(OC6OC(COC7OCC(O)C(O)C7O)C(O)C(O)C6O)C(O)C5O)CC[C@]34C)C2(C)C)C(O)C(O)C1OC1OCC(OC2OCC(O)C(O)C2O)C(O)C1O (stereo not given in full)
READOUT: activity change, negative = inhibition
REPORTED_RESULT: -3.25% [at 11.6 µM] (inactive)

Task item: Sample O=C1CSc2ccccc2N1Cc1cccc(C(F)(F)F)c1 — what was its activity change, negative = inhibition?
Reply: inactive

Task item: Would you mind doing CN(C)C/C=C/C(=O)Nc1cccc(C(=O)Nc2ccc(Nc3nccc(-c4cccnc4)n3)cc2)c1 as well?
Reply: inactive

Task item: Would you mind doing CC(C)=CCc1cc(C(O)C2NC(=O)CNC(=O)C(Cc3c[nH]c4ccccc34)NC(=O)C3CCCN3C(=O)CNC(=O)C(C(C)C)NC(=O)CNC2=O)ccc1O (stereo not given) (cyclo(G[X4]GVGPW); configuration not given here) as well?
Reply: -7.99% [at 11.6 µM] (inactive)

Task item: Would you mind doing COC(=O)C[C@H]1C(C)(C)[C@H](OC(=O)C(C)C)[C@@]2(O)C(=O)[C@]1(C)C1CC[C@]3(C)C(CC(=O)O[C@H]3c3ccoc3)[C@]13O[C@@H]32 (stereo not given in full) as well?
Reply: inactive

Task item: Would you mind doing O=C(CC1C(=O)Nc2ccccc21)OC[C@H]1O[C@@H](OCCc2ccc(O)cc2)[C@H](O)[C@@H](O)[C@@H]1O (stereo not given in full) as well?
Reply: inactive
